# Measurement Target: Muscarinic acetylcholine receptor M1 (Rattus norvegicus) (UniProt P08482)
# Procedure Summary: Counterscreen Concentration-Response Assay for Antagonists of the Neuropeptide S Receptor: Muscarinic Receptor Calcium Signal Transduction.
# Setup Conditions: CHO-M1 cells, carbachol-induced calcium fluorescence, FDSS; series mostly up to 20.2 µM
# Description: NIH Chemical Genomics Center [NCGC] NIH Molecular Libraries Probe Production centers Network [MLPCN] MLPCN Grant: X01-DA026210-01 Assay Submitter (PI): Heilig, Markus Alexander NCGC Assay Overview: Neuropeptide S receptor (NPSR), previously known as GPR154, is a recently de-orphanized G protein coupled receptor. […] This change in intracellular calcium can be detected using a calcium indicator dye on a calcium imaging plate reader system (FDSS). […]
Records with an inconclusive call do not appear. Activity calls are given as the source filed them. Calls come from the whole dose curve; as a rule, active = well fitted inhibition curve with a large enough effect; inconclusive = small, poorly fitted or top-dose-only effect; inactive = flat fitted curve, though single readings scatter.
Returns: one label drawn from label 1 (active), label 0 (inactive)

Reference set, count: 5
Compound: COc1ccc(-c2cc(N)n(S(=O)(=O)c3c(F)c(F)c(F)c(F)c3F)n2)cc1OC
Cat: label 1
//
Compound: N#CC(C#N)=c1ccc2c(c1)NC1(CCCCC1)N=2
Cat: label 0
//
Compound: CCC(C)n1c(=O)c(C(=O)Nc2ccccc2S(N)(=O)=O)c(O)c2ccccc21 (stereo not drawn)
Cat: label 0
//
Compound: CC(=O)n1nc2nc(C)cc(C)c2c1N
Cat: label 0
//
Compound: O=C(NCCCN1CCOCC1)c1cc2c(=O)[nH]c3ccccc3c2s1
Cat: label 0

# ---- query compound ----
q: Call for entry `COc1cccc(C(=O)/C=C/Nc2ccc(S(=O)(=O)Nc3cccc(C(C)=O)c3)cc2)c1` :
a: label 0

* * *

# Measurement Target: Muscarinic acetylcholine receptor M1 (Rattus norvegicus)
# Procedure Summary: Counterscreen Concentration-Response Assay for Antagonists of the Neuropeptide S Receptor: Muscarinic Receptor Calcium Signal Transduction.
# Setup Conditions: CHO-M1 cells, carbachol-induced calcium fluorescence, FDSS; series mostly up to 20.2 µM
Records with an inconclusive call do not appear. The source made the active and inactive calls. Calls come from the whole dose curve; as a rule, active = well fitted inhibition curve with a large enough effect; inconclusive = small, poorly fitted or top-dose-only effect; inactive = flat fitted curve, though single readings scatter.
Pick one and only one: 1 = active, 0 = inactive

See these solved cases before continuing.
Compound: Cc1cccnc1NC(=O)c1c(O)c2cccc3c2n(c1=O)CCC3
Cat: 0

Compound: Brc1ccc(CSc2ncn[nH]2)cc1
Cat: 0

Compound: O=C(N1CCOCC1)C1(c2ccc(Cl)cc2)CCCC1
Cat: 0

Compound: O=C(/C(=C/c1ccc(Cl)cc1)c1nc2ccccc2[nH]1)c1cccs1
Cat: 1

Compound: COc1ccc(NC(=O)/C(Cl)=C(/Cl)S(=O)Cc2ccc(C)cc2)cn1 (stereo not drawn)
Cat: 1

Compound: O=c1cc(-c2c(F)c(F)c(F)c(F)c2F)oc2c(F)c(F)c(F)c(F)c12
Cat: 1

Compound: O=C(O)c1cccc(Nc2ncnc3ccccc23)c1
Cat: 0

Compound: O=C(O)C1CCN(c2nc(-c3ccccc3)nc3c2oc2ccccc23)CC1
Cat: 0

q: Dear colleague, could you share the recorded outcome for O=C1CC(NCc2ccncc2)C(=O)N1c1ccccc1 (stereo not drawn) when you have a moment?
a: 0

q: Outcome? `COc1ccc(N(CC(=O)Nc2cccc(SC)c2)S(C)(=O)=O)cc1Cl`
a: 0

q: I would be grateful if you could indicate the recorded call for CCC(Sc1ccc2nnc(-c3cccnc3)n2n1)C(=O)O (stereo not drawn) .
a: 0

q: Called result for `CC1CCN(S(=O)(=O)c2ccc(C(=O)Nc3sccc3C(N)=O)cc2)CC1`
a: 0

q: Identify the outcome logged in this assay for the compound shown: `COCCCn1c(SCc2cc(=O)[nH]c3ccccc23)nnc1-c1ccco1`
a: 0

* * *

# Measurement Target: Muscarinic acetylcholine receptor M1 (Rattus norvegicus)
# Procedure Summary: Counterscreen Concentration-Response Assay for Antagonists of the Neuropeptide S Receptor: Muscarinic Receptor Calcium Signal Transduction.
# Setup Conditions: CHO-M1 cells, carbachol-induced calcium fluorescence, FDSS; series mostly up to 20.2 µM
Results filed as inconclusive are left out. Activity calls are given as the source filed them. The call rests on the fitted dose curve; in most records, active means well fitted inhibition curve with a large enough effect; inconclusive means small, poorly fitted or top-dose-only effect; inactive means flat fitted curve, though single readings scatter.
Experimental Endpoint: outcome

# example entries with known answers
Compound: O=C(/C=C/c1ccco1)NC(=S)Nc1cccc(-c2nc3ccccc3o2)c1
Experimental Endpoint: outcome
Endpoint Result: inactive

Compound: OC(C#Cc1ccccn1)c1cccs1 (configuration not stated)
Experimental Endpoint: outcome
Endpoint Result: inactive

Compound: COc1ccccc1-c1nnc(SC2CCc3ccccc3NC2=O)s1 (configuration not stated)
Experimental Endpoint: outcome
Endpoint Result: inactive

Compound: CCc1ccc2oc(-c3cc(N)cc(C)c3O)nc2c1
Experimental Endpoint: outcome
Endpoint Result: inactive

Compound: Cc1cc(OCC(=O)c2ccc(Br)cc2)ccc1N1C(=O)CCC1=O
Experimental Endpoint: outcome
Endpoint Result: inactive

Record outcome for all entries; do not skip any.
1. CN(Cc1cc(=O)[nH]c2ccccc12)C(=O)c1ccccc1
2. Cc1ccc2nc3ccc(N4CCCCCCC4)nn3c(=O)c2c1

a:
1: inactive; 2: inactive

* * *

# Measurement Target: Muscarinic acetylcholine receptor M1 (Rattus norvegicus) (UniProt P08482)
# Procedure Summary: Counterscreen Concentration-Response Assay for Antagonists of the Neuropeptide S Receptor: Muscarinic Receptor Calcium Signal Transduction.
# Setup Conditions: CHO-M1 cells, carbachol-induced calcium fluorescence, FDSS; series mostly up to 20.2 µM
Records with an inconclusive call do not appear. Calls of active or inactive are those of the source. Calls follow the shape of the dose curve; as a rule, active = well fitted inhibition curve with a large enough effect; inconclusive = small, poorly fitted or top-dose-only effect; inactive = flat fitted curve, though single readings scatter.
Choose one outcome from this list and give only that: active, inactive

Check out these entries, answers already filled in.
Compound: O=c1cc(CNCCCO)c2ccccc2[nH]1
Cat: inactive

Compound: CN(C)c1ccc(N=Cc2ccco2)cc1
Cat: inactive

Compound: Cc1ccc(/C=C2\SC(=S)N(CC(=O)Nc3ncc(Cc4ccccc4Cl)s3)C2=O)cc1
Cat: inactive

Compound: c1ccc(N2CCN(Cc3ccnc4ccccc34)CC2)cc1
Cat: inactive

Compound: O=C(COC(=O)c1ccccc1C(=O)c1ccc(Cl)c([N+](=O)[O-])c1)NC1CCCCCC1
Cat: active

q: For COc1ccc(C2c3c(ncn(CCN4CCOCC4)c3=N)Oc3ccc4ccccc4c32)cc1OC (stereo not given) , what call appears in the results of this test?
a: inactive
